B1: TPR t1 (parent)
chain: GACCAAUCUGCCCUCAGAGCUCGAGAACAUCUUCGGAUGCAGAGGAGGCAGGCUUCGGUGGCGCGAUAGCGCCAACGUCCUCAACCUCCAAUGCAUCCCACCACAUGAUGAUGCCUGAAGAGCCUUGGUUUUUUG

- Variants of: B1
- assay: polymerase ribozyme fitness, log enrichment relative to wild type (log ratio); higher = more active; in vitro selection for triplet polymerase activity
Entries are grouped by polymerase ribozyme fitness (log ratio) into these classes: low bin (below -4), mid bin (-4 to below -1), high bin (-1 or more)

mutation key | classification
A50U G61U | high bin
G47A G48A U129A | mid bin
C12A C40U C99U | low bin
C12A C76U U106A | mid bin
A5U G19A G69U C72G U112G | mid bin
C72G C79G U133A | mid bin
G51U U87A G107U C115A A121U | low bin
C8G C56A G77A | high bin
C56G C72U U130A | mid bin
U9A G36U G120U | high bin
U9C C49A C62U C123U | high bin
G42A C124A | high bin
C85U G120C | high bin
U9A G36A | high bin
A46C C104A A118U C123G | mid bin
U67A C123U | low bin
C22A A26G G39A G63C C99A C115G | low bin
A46U G107C | low bin
U92C G117A | mid bin
A46U C73U C123G G127A | mid bin
A24U C124U | low bin
G52U | high bin
C13G C101U | mid bin
C34U G113C | low bin
C8A G44U G57A C64U | high bin
C98A A100G C114A | low bin
G61U A68U U87A C114G | low bin
C8A C79U C88G C102U | mid bin
C82A G93C C97U G113U | low bin
C8U C62U | high bin
G60U C104U | high bin
G61U U106A U116C | high bin
C4G G61C G69U U112A | mid bin
C13A A103U A108U G117C U129A | low bin
C85U U109G | low bin
U55C C82A C124G | high bin
C11G G17U G61A A105G | low bin
C12A U81A | mid bin
G23U G45A C56U C98A U112G | low bin
C20A G45U C53G C88U A111U U125G | low bin
G42C C53A C85U C114G C124U U133G | mid bin
